Value source: the NIST ThermoML archive (doi:10.1021/je400004j)

Measurement protocol: xn = mol fraction of the nth substance listed
Reported conditions: 298.15 K, Ring tensiometer, x1 = 0.4
surface tension liquid-gas under 30 mN/m gets Criterion met, anything at or over 30 mN/m gets Criterion not met.

Molecule: CCn1cc[n+](C)c1.COP(=O)([O-])OC [1-ethyl-3-methylimidazolium dimethylphosphate] + O
Group: Criterion not met
//
Molecule: COP(=O)([O-])OC.Cn1cc[n+](C)c1 [1,3-dimethylimidazolium dimethylphosphate] + CO
Group: Criterion not met
//
Molecule: CCn1cc[n+](C)c1.COP(=O)([O-])OC [1-ethyl-3-methylimidazolium dimethylphosphate] + CO
Group: Criterion not met
//
Molecule: CCCCOP(=O)([O-])OCCCC.CCCCn1cc[n+](C)c1 [1-butyl-3-methylimidazolium dibutyl phosphate] + CO
Group: Criterion met
//
Molecule: CCOP(=O)([O-])OCC.CCn1cc[n+](CC)c1 [1,3-diethyl-1H-imidazol-3-ium diethyl phosphate] + O
Group: Criterion not met
//
Molecule: CCOP(=O)([O-])OCC.CCn1cc[n+](C)c1 [1-ethyl-3-methylimidazolium diethyl phosphate] + CCO
Group: Criterion met
//
Molecule: CCCCOP(=O)([O-])OCCCC.CCCCn1cc[n+](C)c1 [1-butyl-3-methylimidazolium dibutyl phosphate] + CCO
Group: Criterion met
//
Molecule: CCOP(=O)([O-])OCC.CCn1cc[n+](C)c1 [1-ethyl-3-methylimidazolium diethyl phosphate] + CO
Group: Criterion not met
//
Molecule: CCCCn1cc[n+](CC)c1.CCOP(=O)([O-])OCC [1-butyl-3-ethyl-1H-imidazol-3-ium diethyl phosphate] + O
Group: Criterion not met
//
Molecule: COP(=O)([O-])OC.Cn1cc[n+](C)c1 [1,3-dimethylimidazolium dimethylphosphate] + O
Group: Criterion not met
//
Molecule: CCCCn1cc[n+](C)c1.COP(=O)([O-])OC [1-butyl-3-methyl-1H-imidazolium dimethylphosphate] + O
Group: Criterion not met
//
Molecule: CCn1cc[n+](C)c1.COP(=O)([O-])OC [1-ethyl-3-methylimidazolium dimethylphosphate] + CCO
Group: Criterion met
